# system: KRAS WT (Homo sapiens, UniProt P01116+P62937)
# Sequence (P01116 1-169 isoform P01116-2 limits assumed): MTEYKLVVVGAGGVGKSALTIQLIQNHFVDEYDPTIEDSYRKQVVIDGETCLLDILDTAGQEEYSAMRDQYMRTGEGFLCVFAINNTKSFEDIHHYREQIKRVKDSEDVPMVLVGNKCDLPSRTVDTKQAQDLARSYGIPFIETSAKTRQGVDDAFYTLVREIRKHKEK
# Sequence (P62937 whole entry): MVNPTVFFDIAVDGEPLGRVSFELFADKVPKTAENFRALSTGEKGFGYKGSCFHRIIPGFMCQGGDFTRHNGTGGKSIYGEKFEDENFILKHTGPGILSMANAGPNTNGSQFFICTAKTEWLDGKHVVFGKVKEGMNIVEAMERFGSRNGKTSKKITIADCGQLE
# test summary: Disruption of BRAF RBD interaction with Ras (FRET / MOA assay, with Cyclophilin A)
# Assay type: biochemical
# condition details: KRAS WT; read-out: KRAS WT FRET data IC50
property: IC50

Provide IC50 values for the following items, in order.
1. CCn1c(-c2cnccc2COC)c2c3cc(ccc31)-c1cc(O)cc(c1)C[C@H](NC(=O)[C@H](C(C)C)N(C)C(=O)N1CC(OC)C1)C(=O)N1CCC[C@H](N1)C(=O)OCC(C)(C)C2
2. CCn1c(-c2cccnc2[C@H](C)OC)c2c3cc(ccc31)-c1cc(O)cc(c1)C[C@H](NC(=O)[C@H](C(C)C)N(C)C(=O)C1(N)CC1)C(=O)N1CCC[C@H](N1)C(=O)OCC(C)(C)C2
3. CCn1c(-c2cccnc2[C@H](C)OC)c2c3cc(ccc31)-c1csc(n1)C[C@H](NC(=O)[C@H](C(C)C)N(C)C(=O)N1CC([C@H](C)CO)C1)C(=O)N1CCC[C@H](N1)C(=O)OCC(C)(C)C2 (atropisomer, axis not shown)
4. CCn1c(-c2cccnc2[C@H](C)OC)c2c3cc(ccc31)-c1csc(n1)C[C@H](NC(=O)[C@H]1CCO1)C(=O)N1CCC[C@H](N1)C(=O)OCC(C)(C)C2

["100 to 1000 nM", "10 to 100 nM", "100 to 1000 nM", "100 to 1000 nM"]

====

# system: KRAS G12D (Homo sapiens, UniProt P01116+P62937, G12D)
# Sequence (P01116 1-169 isoform P01116-2 G12D limits assumed, one chain of several): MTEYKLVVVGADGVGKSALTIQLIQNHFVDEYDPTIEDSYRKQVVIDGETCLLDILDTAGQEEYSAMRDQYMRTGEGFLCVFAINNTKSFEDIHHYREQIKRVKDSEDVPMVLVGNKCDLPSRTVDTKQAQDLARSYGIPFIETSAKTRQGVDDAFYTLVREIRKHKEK
# test summary: Disruption of BRAF RBD interaction with Ras (FRET / MOA assay, with Cyclophilin A)
# Format: biochemical
# condition details: read-out: KRAS G12D FRET data, IC50
pIC50: −log10 of the molar value.
property: pIC50

Field: example entries. Status: answers known.
- compound: "C=CC(=O)N1CC[C@H](C(=O)N(C)[C@H](C(=O)N[C@H]2Cc3cc(O)cc(c3)-c3ccc4c(c3)c(c(-c3ccccc3[C@@H](C)OC)n4CC)CC(C)(C)COC(=O)[C@@H]3CCCN(N3)C2=O)C(C)C)C1"
  system: "KRAS G12D (Homo sapiens, UniProt P01116+P62937, G12D)"
  pIC50: "5.00 to 6.00"
- compound: "CCn1c(-c2cccnc2[C@H](C)OC)c2c3cc(ccc31)-c1csc(n1)C[C@H](NC(=O)[C@H](C(C)C)N(C)C(=O)N1CCCC13COC3)C(=O)N1CCC[C@H](N1)C(=O)OCC(C)(C)C2 (atropisomer, axis not shown)"
  system: "KRAS G12D (Homo sapiens, UniProt P01116+P62937, G12D)"
  pIC50: "6.00 to 7.00"
- compound: "CCn1c(-c2cncnc2)c2c3cc(ccc31)-c1cc(O)cc(c1)C[C@H](NC(=O)[C@H](C(C)C)N(C)C(=O)[C@H]1CCN(C(=O)C#CCN(C)C)C1)C(=O)N1CCC[C@H](N1)C(=O)OCC(C)(C)C2"
  system: "KRAS G12D (Homo sapiens, UniProt P01116+P62937, G12D)"
  pIC50: "5.00 to 6.00"

Provide pIC50 values for the following items, in order.
1. CCn1c(-c2cccnc2COC)c2c3cc(ccc31)-c1cc(O)cc(c1)C[C@H](NC(=O)[C@@H](C(C)C)N(C)C(=O)[C@H]1CCN(C(=O)C#CCN(C)C)C1)C(=O)N1CCC[C@H](N1)C(=O)OCC(C)(C)C2
2. CCn1c(-c2cccnc2[C@H](C)OC)c2c3cc(ccc31)-c1cc(O)cc(c1)C[C@H](NC(=O)[C@H](C(C)C)N(C)C(=O)C1(CO)CC1)C(=O)N1CCC[C@H](N1)C(=O)OCC(C)(C)C2

5.00 to 6.00
6.00 to 7.00

Provide pIC50 values for the following items, in order.
1. CCn1c(-c2cccnc2[C@H](C)OC)c2c3cc(ccc31)-c1cc(O)cc(c1)C[C@H](NC(=O)[C@H](C(C)C)N(C)C(=O)C1(N)CC1)C(=O)N1CCC[C@H](N1)C(=O)OCC(C)(C)C2
2. CCn1c(-c2cccnc2[C@H](C)OC)c2c3cc(ccc31)-c1csc(n1)C[C@H](NC(=O)[C@H](C(C)C)N(C)C(=O)N1CC[C@@H]1C(=O)NC)C(=O)N1CCC[C@H](N1)C(=O)OCC(C)(C)C2

1. 6.00 to 7.00
2. < 5.00

Provide pIC50 values for the following items, in order.
1. CCn1c(-c2cccnc2[C@H](C)OC)c2c3cc(ccc31)-c1csc(n1)C[C@H](NC(=O)[C@H](C(C)C)N(C)C(=O)N1CCCC[C@@H](N(C)C)C1)C(=O)N1CCC[C@H](N1)C(=O)OCC(C)(C)C2
2. CCn1c(-c2cccnc2[C@H](C)OC)c2c3cc(ccc31)-c1csc(n1)C[C@H](NC(=O)[C@H](C(C)C)N(C)C(=O)N1CC3(CCN(C)CC3)C1)C(=O)N1CCC[C@H](N1)C(=O)OCC(C)(C)C2

["6.00 to 7.00", "5.00 to 6.00"]
